Where these numbers come from: patent US8536351B2

# pest or weed control at 500 g/ha values compiled below
# Test system: Avena fatua (AVEFA)
# PROTOCOL_DETAILS: Pre-emergence activity, glasshouse pot test (100=total damage to plant; 0=no damage to plant)
# Format: in vivo
# MEASUREMENT_PARAMETERS: rate 500 g/ha, evaluated 19, 20 or 21 days after spraying
# unit: % | format: bare number

Solved cases below.
COMPOUND	pest or weed control at 500 g/ha [%]
CCc1cc(C)cc(C)c1C1=C(O)CC(C2CCOCC2)CC1=O (stereo not drawn) [Compound T12]	90
CCc1cc(C)cc(CC)c1C1=C(OC(=O)C(C)(C)C)CC(C2CCS(=O)(=O)CC2)CC1=O (stereo not drawn) [Compound P3]	80
CCc1cc(C)cc(C)c1C1=C(O)CC(C2CCOC2)CC1=O (stereo not drawn) [Compound T11]	70

Prompt: State its pest or weed control at 500 g/ha for this compound: Cc1cc(C)c(C2=C(O)CC(C3CCOCC3)CC2=O)c(C)c1 (stereo not drawn) [Compound T3]
Response: 90

Prompt: State its pest or weed control at 500 g/ha for this compound: CCc1cc(C)cc(C)c1C1=C(O)CC(C2CCSCC2)CC1=O (stereo not drawn) [Compound T21]
Response: 70

Prompt: State its pest or weed control at 500 g/ha for this compound: Cc1ccc(-c2ccc(Cl)cc2)cc1C1=C(O)CC(C2CCOCC2)CC1=O (stereo not drawn) [Compound T9]
Response: 60

---

# System: Avena fatua (AVEFA)
# PROTOCOL_DETAILS: Pre-emergence activity, glasshouse pot test (100=total damage to plant; 0=no damage to plant)
# Type: in vivo
# MEASUREMENT_PARAMETERS: rate 500 g/ha, evaluated 19, 20 or 21 days after spraying
Returns one of Fulfilled or Not fulfilled; Fulfilled when pest or weed control at 500 g/ha is >= 70%.

Solved cases below.
MOLECULE	TEST_SYSTEM	CLASS
CC(=O)OC1=C(c2c(C)cc(C)cc2C)C(=O)CC(C2CCOC2)C1 (centres unmarked) [Compound P1]	Avena fatua (AVEFA)	Not fulfilled
CCc1cc(C)cc(CC)c1C1=C(O)CC(C2CCC[S+]([O-])C2)CC1=O (centres unmarked)	Avena fatua (AVEFA)	Fulfilled
Cc1ccc(-c2ccc(Cl)cc2)cc1C1=C(O)CC(C2CCOC2)CC1=O (centres unmarked)	Avena fatua (AVEFA)	Not fulfilled
CCc1cc(C)cc(CC)c1C1=C(O)CC(C2CCOCC2)CC1=O (centres unmarked)	Avena fatua (AVEFA)	Fulfilled
CCc1cc(C)cc(CC)c1C1=C(O)CC(C2CCCSC2)CC1=O (centres unmarked)	Avena fatua (AVEFA)	Fulfilled

Prompt: Could you please find out whether CCc1cc(C)cc(CC)c1C1=C(O)CC(C2CCCS(=O)(=O)C2)CC1=O (centres unmarked) has pest or weed control at 500 g/ha that meets 70% or exceeds it?
Response: Fulfilled

Prompt: Could you please find out whether Cc1cc(C)c(C2=C(O)CC(C3CCSCC3)CC2=O)c(C)c1 (centres unmarked) has pest or weed control at 500 g/ha that meets 70% or exceeds it?
Response: Not fulfilled

---

# Test system: Setaria faberi (SETFA)
# PROTOCOL_DETAILS: Pre-emergence activity, glasshouse pot test (100=total damage to plant; 0=no damage to plant)
# Assay type: in vivo
# MEASUREMENT_PARAMETERS: rate 500 g/ha, evaluated 19, 20 or 21 days after spraying
ENDPOINT_LABEL: pest or weed control at 500 g/ha (%)
# unit: % | format: bare number

Prompt: State its pest or weed control at 500 g/ha for this molecule: Cc1ccc(-c2ccc(Cl)cc2)cc1C1=C(O)CC(C2CCOC2)CC1=O (stereo not drawn) [Compound T7]
Response: 100
